Value source: patent US20250188176A1

Please go through the items and note down their kon.
experimentalSystem: T1, Extracellular domain (ECD) of the canine IL-4 receptor alpha-V5 epitope-AviTag-His Tag (canine)
T1 construct: monomeric form isolated by size exclusion; also called canine IL-4RA-V5-Avi-His; canine IL-4RA
T1 chain: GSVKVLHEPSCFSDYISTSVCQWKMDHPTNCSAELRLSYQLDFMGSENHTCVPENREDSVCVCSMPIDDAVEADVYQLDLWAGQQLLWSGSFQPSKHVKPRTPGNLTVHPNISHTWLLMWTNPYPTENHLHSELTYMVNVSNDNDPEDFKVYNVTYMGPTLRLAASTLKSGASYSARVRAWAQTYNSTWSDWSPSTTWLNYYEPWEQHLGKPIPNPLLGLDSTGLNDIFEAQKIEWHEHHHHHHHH
methodDescription: SPR, Fab-SASA captured on BSA;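 note: biacore T200 SPR, Fab-SASA variants from E. coli conditioned medium captured on BSA-coated CM5 chip, canine IL-4RA injected 120 s then 420 s dissociation, 1:1 model fit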
Numbers only, in M⁻¹ s⁻¹.

TB640_005 Fab-SASA VL-A60M (Fab, V domains shown, not shown: SASA tag then His-tag) VH: EVQLVESGGDLVKPGGSLRLSCVASGFTFRDYAMTWVRQAPGKGLQWVSLISGSGGKTYYADAVKGRFTISRDNAKNTLYLQMNSLRAEDTAVYYCAVDRLTKTIRPQYYGLWVWGQGTLVTVSS VL: DIVMTQTPLSLSVSPGETASISCRSSQSLLYSIGYNYLDWYLQKPGQSPQGLIYLGSKRMSGVPDRFSGSGSGTDFTLRISRVEANDTGVYYCMQGLQSPLTFGQGTKLEIKR :: 188000
TB640_005 Fab-SASA VL-A60L (Fab, V domains shown, not shown: SASA tag then His-tag) VH: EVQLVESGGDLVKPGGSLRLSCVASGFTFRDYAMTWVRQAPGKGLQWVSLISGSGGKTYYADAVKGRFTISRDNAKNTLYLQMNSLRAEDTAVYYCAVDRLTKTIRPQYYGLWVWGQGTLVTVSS VL: DIVMTQTPLSLSVSPGETASISCRSSQSLLYSIGYNYLDWYLQKPGQSPQGLIYLGSKRLSGVPDRFSGSGSGTDFTLRISRVEANDTGVYYCMQGLQSPLTFGQGTKLEIKR :: 180000
TB640_005 Fab-SASA VL-T102G (Fab, V domains shown, not shown: SASA tag then His-tag) VH: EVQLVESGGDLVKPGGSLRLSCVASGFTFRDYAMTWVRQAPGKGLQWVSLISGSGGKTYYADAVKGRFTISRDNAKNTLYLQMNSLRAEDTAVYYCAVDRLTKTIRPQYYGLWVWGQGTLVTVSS VL: DIVMTQTPLSLSVSPGETASISCRSSQSLLYSIGYNYLDWYLQKPGQSPQGLIYLGSKRASGVPDRFSGSGSGTDFTLRISRVEANDTGVYYCMQGLQSPLGFGQGTKLEIKR :: 78500
TB640_005 Fab-SASA VH-V114K (Fab, V domains shown, not shown: SASA tag then His-tag) VH: EVQLVESGGDLVKPGGSLRLSCVASGFTFRDYAMTWVRQAPGKGLQWVSLISGSGGKTYYADAVKGRFTISRDNAKNTLYLQMNSLRAEDTAVYYCAVDRLTKTIRPQYYGLWKWGQGTLVTVSS VL: DIVMTQTPLSLSVSPGETASISCRSSQSLLYSIGYNYLDWYLQKPGQSPQGLIYLGSKRASGVPDRFSGSGSGTDFTLRISRVEANDTGVYYCMQGLQSPLTFGQGTKLEIKR :: 120000
TB640_005 Fab-SASA VL-Q27L (Fab, V domains shown, not shown: SASA tag then His-tag) VH: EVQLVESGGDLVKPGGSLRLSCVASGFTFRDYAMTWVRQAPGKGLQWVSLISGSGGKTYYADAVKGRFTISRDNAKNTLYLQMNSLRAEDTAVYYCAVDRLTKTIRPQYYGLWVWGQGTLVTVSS VL: DIVMTQTPLSLSVSPGETASISCRSSLSLLYSIGYNYLDWYLQKPGQSPQGLIYLGSKRASGVPDRFSGSGSGTDFTLRISRVEANDTGVYYCMQGLQSPLTFGQGTKLEIKR :: 64200

Report kon for each item below.
1. TB640_005 Fab-SASA VL-L55M (Fab, V domains shown, not shown: SASA tag then His-tag) VH: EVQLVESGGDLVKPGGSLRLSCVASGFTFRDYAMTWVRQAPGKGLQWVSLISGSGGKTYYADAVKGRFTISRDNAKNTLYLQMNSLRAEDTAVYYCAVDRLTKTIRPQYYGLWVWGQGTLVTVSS VL: DIVMTQTPLSLSVSPGETASISCRSSQSLLYSIGYNYLDWYLQKPGQSPQGLIYMGSKRASGVPDRFSGSGSGTDFTLRISRVEANDTGVYYCMQGLQSPLTFGQGTKLEIKR
2. TB640_005 Fab-SASA VH-K103R (Fab, V domains shown, not shown: SASA tag then His-tag) VH: EVQLVESGGDLVKPGGSLRLSCVASGFTFRDYAMTWVRQAPGKGLQWVSLISGSGGKTYYADAVKGRFTISRDNAKNTLYLQMNSLRAEDTAVYYCAVDRLTRTIRPQYYGLWVWGQGTLVTVSS VL: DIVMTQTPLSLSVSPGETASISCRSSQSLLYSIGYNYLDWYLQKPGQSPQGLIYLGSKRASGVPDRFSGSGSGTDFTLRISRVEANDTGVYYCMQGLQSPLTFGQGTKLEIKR
3. TB640_005 Fab-SASA VH-V114H (Fab, V domains shown, not shown: SASA tag then His-tag) VH: EVQLVESGGDLVKPGGSLRLSCVASGFTFRDYAMTWVRQAPGKGLQWVSLISGSGGKTYYADAVKGRFTISRDNAKNTLYLQMNSLRAEDTAVYYCAVDRLTKTIRPQYYGLWHWGQGTLVTVSS VL: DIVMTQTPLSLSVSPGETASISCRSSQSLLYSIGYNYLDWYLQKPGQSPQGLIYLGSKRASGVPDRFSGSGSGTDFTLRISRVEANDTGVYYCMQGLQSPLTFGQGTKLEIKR
4. TB640_005 Fab-SASA VL-I33V (Fab, V domains shown, not shown: SASA tag then His-tag) VH: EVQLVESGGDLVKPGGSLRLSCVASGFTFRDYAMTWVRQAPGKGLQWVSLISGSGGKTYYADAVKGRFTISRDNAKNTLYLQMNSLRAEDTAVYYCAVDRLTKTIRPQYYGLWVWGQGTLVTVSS VL: DIVMTQTPLSLSVSPGETASISCRSSQSLLYSVGYNYLDWYLQKPGQSPQGLIYLGSKRASGVPDRFSGSGSGTDFTLRISRVEANDTGVYYCMQGLQSPLTFGQGTKLEIKR
5. TB640_005 Fab-SASA VH-L101K (Fab, V domains shown, not shown: SASA tag then His-tag) VH: EVQLVESGGDLVKPGGSLRLSCVASGFTFRDYAMTWVRQAPGKGLQWVSLISGSGGKTYYADAVKGRFTISRDNAKNTLYLQMNSLRAEDTAVYYCAVDRKTKTIRPQYYGLWVWGQGTLVTVSS VL: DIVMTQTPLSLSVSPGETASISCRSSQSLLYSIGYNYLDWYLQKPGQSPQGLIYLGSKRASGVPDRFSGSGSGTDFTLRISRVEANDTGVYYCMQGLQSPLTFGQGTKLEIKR

RESULT:
1. 83900
2. 89200
3. 108000
4. 79800
5. 87800
